Test: Half life in rat at 1 mg/kg, iv
Type: ADME, organism-based
Set-up: dose 1 mg/kg, route intravenous
Details: in vivo
MEASURE NAME: half-life (h)

a. O=C(NCc1ccccc1)[C@@H]1CCC[C@H]1C(O)CCc1ccc(OC(F)(F)F)cc1 (stereo in doubt; 13B)
b. CN(Cc1ccc(-c2ccccc2S(N)(=O)=O)cc1)C(=O)[C@@H]1CCC[C@H]1C(=O)NCc1ccc(OC(F)(F)F)cc1 (relative stereo)
Problem: Looking at a and b , which one comes out lower in half-life terms? Use the label to indicate which entry you chose.
Result: b

----------
Experiment: Oral bioavailability in rat
Type: ADME, organism-based
Conditions: in vivo
MEASURE NAME: bioavailability (%)
Quick note: give the figure in %, leave out the unit.

The reported value for CN(Cc1ccc(-c2ccccc2S(N)(=O)=O)cc1)C(=O)[C@@H]1CCC[C@H]1C(=O)NCc1ccc(OC(F)(F)F)cc1 (relative stereo) in terms of bioavailability is 44
